Listed here are molecules together with their documented Activity.
biological target: Amyloid-beta precursor protein (Homo sapiens); test: Inhibition of Amyloid beta (1 to 42) (unknown origin) aggregation assessed as extension of time of the half aggregation at 10 to 1 ratio of compound to amyloid beta (1 to 42) incubated for 48 hrs fluorescence-detected ThT-binding assay; design: scale not given: the % may be the effect or the level left
Starred links: 1 amine or outer side, 2 acyl side, 3 side chain; linkers in the order of their positions; H or OH if unused. Non-standard residues stand in square brackets, D forms with d. Residues, ends and D or L forms follow the SMILES beside them. *: point of attachment. X3 = C[C@H](O)CN(N[*:1])C(=O)NN(CCCCN)C(=O)[*:2]; X2 = CC(C)CN(NC(=O)N(C)N[*:1])C(=O)[*:2]; X1 = C[C@H](O)CN(N)C(=O)NN(CCCCN)C(=O)*
# number only, unit % dropped from output

Known results for molecules:
CC(C)C[C@H](NC(=O)[C@H](C)NC(=O)[C@H](CCCCN)NC(=O)[C@H](Cc1c[nH]c2ccccc12)NC(=O)[C@H](Cc1ccc(O)cc1)NC(=O)[C@H](CO)NC(=O)N(CCCCN)NC(=O)N(N)C[C@H](C)O)C(=O)NCC(N)=O (X1-SYWKALG-NH2): 193
CC(C)CN(NC(=O)N(C)NC(=O)[C@H](CCCCN)NC(=O)[C@H](Cc1c[nH]c2ccccc12)NC(=O)[C@H](Cc1ccc(O)cc1)NC(=O)[C@H](CO)NC(=O)[C@H](CCCCN)NC(=O)[C@@H](N)[C@@H](C)O)C(=O)NCC(N)=O (H-TKSYWK[X2]G-NH2): 36
CC(C)CN(NC(=O)N(C)NC(=O)[C@H](CCCCN)NC(=O)[C@H](Cc1c[nH]c2ccccc12)NC(=O)[C@H](Cc1ccc(O)cc1)NC(=O)[C@H](CO)NC(=O)N(CCCCN)NC(=O)N(N)C[C@H](C)O)C(=O)NCC(N)=O (X1-SYWK[X2]G-NH2): 254
CC(=O)N[C@H](C(=O)N[C@@H](CCCCN)C(=O)N[C@@H](CO)C(=O)NN(Cc1ccc(O)cc1)C(=O)NN(CCc1c[nH]c2ccccc12)C(=O)N[C@@H](CCCCN)C(=O)NN(C)C(=O)NN(CC(C)C)C(=O)NCC(N)=O)[C@@H](C)O: 34
CC(=O)NN(C[C@H](C)O)C(=O)NN(CCCCN)C(=O)N[C@@H](CO)C(=O)N[C@@H](Cc1ccc(O)cc1)C(=O)N[C@@H](Cc1c[nH]c2ccccc12)C(=O)N[C@@H](CCCCN)C(=O)NN(C)C(=O)NN(CC(C)C)C(=O)NCC(N)=O (Ac-[X3]SYWK[X2]G-NH2): 30
CC(=O)N[C@H](C(=O)N[C@@H](CCCCN)C(=O)N[C@@H](CO)C(=O)NN(Cc1ccc(O)cc1)C(=O)NN(CCc1c[nH]c2ccccc12)C(=O)N[C@@H](CCCCN)C(=O)N[C@@H](C)C(=O)N[C@@H](CC(C)C)C(=O)NCC(N)=O)[C@@H](C)O: 102
CC(=O)NN(C[C@H](C)O)C(=O)NN(CCCCN)C(=O)N[C@@H](CO)C(=O)N[C@@H](Cc1ccc(O)cc1)C(=O)N[C@@H](Cc1c[nH]c2ccccc12)C(=O)N[C@@H](CCCCN)C(=O)N[C@@H](C)C(=O)N[C@@H](CC(C)C)C(=O)NCC(N)=O (Ac-[X3]SYWKALG-NH2): 107
CC(=O)N[C@H](C(=O)N[C@@H](CCCCN)C(=O)N[C@@H](CO)C(=O)N[C@@H](Cc1ccc(O)cc1)C(=O)N[C@@H](Cc1c[nH]c2ccccc12)C(=O)N[C@@H](CCCCN)C(=O)NN(C)C(=O)NN(CC(C)C)C(=O)NCC(N)=O)[C@@H](C)O (Ac-TKSYWK[X2]G-NH2): 59
CC(=O)NN(C[C@H](C)O)C(=O)NN(CCCCN)C(=O)N[C@@H](CO)C(=O)NN(Cc1ccc(O)cc1)C(=O)NN(CCc1c[nH]c2ccccc12)C(=O)N[C@@H](CCCCN)C(=O)NN(C)C(=O)NN(CC(C)C)C(=O)NCC(N)=O: 42

Here is another molecule to look at.
Req: Item: `CC(=O)NN(C[C@H](C)O)C(=O)NN(CCCCN)C(=O)N[C@@H](CO)C(=O)NN(Cc1ccc(O)cc1)C(=O)NN(CCc1c[nH]c2ccccc12)C(=O)N[C@@H](CCCCN)C(=O)N[C@@H](C)C(=O)N[C@@H](CC(C)C)C(=O)NCC(N)=O` Test system: Amyloid-beta precursor protein (Homo sapiens) Read-out: Activity Value: ?
Resp: 72

Where do the numbers come from? From ChEMBL document CHEMBL5321288.
